# Tested on: RARg homodimer (NR concentration 270 nM)
# procedureSummary: PBM binding z-score (relative to random genomic background probes); higher = stronger binding; sequences stand for … in GC…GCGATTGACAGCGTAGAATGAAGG
Quick rule for you: PBM binding z-score at 0.4 or higher means fulfilled, lower means not fulfilled.

Observe how each entry below is paired with its result.
residueCodes	assignedClass
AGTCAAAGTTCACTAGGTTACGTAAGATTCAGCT	fulfilled
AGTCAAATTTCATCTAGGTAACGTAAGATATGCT	not fulfilled
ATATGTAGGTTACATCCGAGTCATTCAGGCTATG	fulfilled

Query: Given `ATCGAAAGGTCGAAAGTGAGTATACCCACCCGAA` , state whether its PBM binding z-score is at least 0.4.
Response: fulfilled

Query: Item: `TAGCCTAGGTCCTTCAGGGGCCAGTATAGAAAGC`
Response: not fulfilled

====

As shown below, each of these sequences has a reported PBM binding z-score value.
# Tested on: RARa homodimer (NR concentration 270 nM)
# procedureSummary: PBM binding z-score (relative to random genomic background probes); higher = stronger binding; sequences stand for … in GC…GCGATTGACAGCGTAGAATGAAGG
Enter the number alone.

The following sequences have reported results that may help.
residueCodes	testedTarget	PBM binding z-score
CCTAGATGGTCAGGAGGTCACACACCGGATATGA	RARa homodimer (NR concentration 270 nM)	2.24
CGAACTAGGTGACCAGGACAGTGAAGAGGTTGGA	RARa homodimer (NR concentration 270 nM)	-0.394
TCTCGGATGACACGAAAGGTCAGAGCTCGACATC	RARa homodimer (NR concentration 270 nM)	1.07
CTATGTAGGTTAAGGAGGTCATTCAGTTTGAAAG	RARa homodimer (NR concentration 270 nM)	0.704
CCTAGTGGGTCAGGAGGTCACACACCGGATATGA	RARa homodimer (NR concentration 270 nM)	1.06

Query: Kindly state the measured PBM binding z-score obtained for `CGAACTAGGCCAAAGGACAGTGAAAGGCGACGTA` with RARa homodimer (NR concentration 270 nM).
Response: -0.451

Query: Param item: `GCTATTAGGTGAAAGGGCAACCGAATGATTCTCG`
Response: 0.772

Query: Ok, now `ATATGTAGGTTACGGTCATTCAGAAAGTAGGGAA`
Response: 0.836

Query: Also check `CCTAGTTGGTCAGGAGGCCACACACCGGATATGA`
Response: 0.55

Query: // next record `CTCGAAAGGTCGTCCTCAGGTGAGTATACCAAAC`
Response: -0.0286

Query: How about this sequence: `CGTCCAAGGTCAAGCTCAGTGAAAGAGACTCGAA`
Response: 0.572

Query: And what about the sequence `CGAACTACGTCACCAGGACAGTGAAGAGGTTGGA` ?
Response: -0.285

Query: Try the sequence `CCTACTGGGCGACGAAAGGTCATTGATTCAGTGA`
Response: 0.351

Query: Try the sequence `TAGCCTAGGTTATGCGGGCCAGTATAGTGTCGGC`
Response: -1.25

====

# System: RARg:RXRa (NR concentration 270 nM, RXRa partner concentration 90 nM)
# procedureSummary: PBM binding z-score (relative to random genomic background probes); higher = stronger binding; sequences stand for … in GC…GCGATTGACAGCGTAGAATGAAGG
Each entry below carries its reported PBM binding z-score.

Worked cases, answers included:
residueCodes	outcomeMeasure	recordedResult
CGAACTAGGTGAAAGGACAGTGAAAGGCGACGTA	PBM binding z-score	0.833
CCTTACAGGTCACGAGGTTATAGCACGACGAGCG	PBM binding z-score	6.3
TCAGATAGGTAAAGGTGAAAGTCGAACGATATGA	PBM binding z-score	1.57
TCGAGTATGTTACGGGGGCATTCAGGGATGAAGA	PBM binding z-score	2.19
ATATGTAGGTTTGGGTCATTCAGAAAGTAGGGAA	PBM binding z-score	1.92

Query: Record request: PBM binding z-score value, item `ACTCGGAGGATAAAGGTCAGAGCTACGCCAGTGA`
Response: 4.72

Query: Could you do the same for `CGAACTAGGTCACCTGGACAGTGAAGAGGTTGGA` , please?
Response: 4.43

Query: Same for `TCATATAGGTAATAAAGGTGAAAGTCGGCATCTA`
Response: 1.51

Query: And `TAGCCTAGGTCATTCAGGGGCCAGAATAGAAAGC` ?
Response: 5.97

Query: And then `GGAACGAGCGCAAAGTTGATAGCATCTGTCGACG` , what is it?
Response: -0.446

Query: Note, next up: `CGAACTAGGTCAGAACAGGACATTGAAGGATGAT`
Response: 2.57

Query: Entry `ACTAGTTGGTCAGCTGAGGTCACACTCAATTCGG` please
Response: 3.93

Query: Ok, now `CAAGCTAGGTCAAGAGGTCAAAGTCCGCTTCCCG`
Response: 8.34

Query: Repeat with `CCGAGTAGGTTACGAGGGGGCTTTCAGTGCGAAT`
Response: 1.85

Query: Another: `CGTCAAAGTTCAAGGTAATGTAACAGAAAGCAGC`
Response: 5.25

====

The sequences listed here are annotated with their PBM binding z-score.
# System: RARg homodimer (NR concentration 270 nM)
# procedureSummary: PBM binding z-score (relative to random genomic background probes); higher = stronger binding; sequences stand for … in GC…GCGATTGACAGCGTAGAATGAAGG

Below: 2 sequences and their reported PBM binding z-score.
residueCodes	testedTarget	PBM binding z-score
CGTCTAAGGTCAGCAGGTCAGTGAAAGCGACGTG	RARg homodimer (NR concentration 270 nM)	7.53
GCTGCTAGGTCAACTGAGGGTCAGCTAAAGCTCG	RARg homodimer (NR concentration 270 nM)	6.85

Now, please, on to the next sequence.
Query: # lookup: PBM binding z-score of `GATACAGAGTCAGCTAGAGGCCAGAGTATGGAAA`
Response: 0.249

====

In this section, each of the sequences is paired with its reported PBM binding z-score.
# Test system: RXRa homodimer (NR concentration 180 nM)
# procedureSummary: PBM binding z-score (relative to random genomic background probes); higher = stronger binding; sequences stand for … in GC…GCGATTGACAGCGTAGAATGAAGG
Kindly provide the number alone.

residueCodes	outcomeMeasure	recordedResult
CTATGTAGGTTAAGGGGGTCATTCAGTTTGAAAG	PBM binding z-score	6.26
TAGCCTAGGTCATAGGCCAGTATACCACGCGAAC	PBM binding z-score	3.51
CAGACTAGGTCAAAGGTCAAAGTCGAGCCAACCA	PBM binding z-score	10.3

Okay, next one:
Query: Please state recorded PBM binding z-score (tested on RXRa homodimer (NR concentration 180 nM)) of `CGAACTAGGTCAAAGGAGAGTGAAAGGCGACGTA`
Response: 3

====

# Tested on: PPARa:RXRa (NR concentration 270 nM, RXRa partner concentration 90 nM)
# procedureSummary: PBM binding z-score (relative to random genomic background probes); higher = stronger binding; sequences stand for … in GC…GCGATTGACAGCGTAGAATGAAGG
PBM binding z-score: recorded values
Field format: numeric only.

residueCodes	PBM binding z-score
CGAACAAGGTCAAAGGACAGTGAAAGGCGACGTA	6.01

Query: What value of PBM binding z-score has been reported for the following sequence? `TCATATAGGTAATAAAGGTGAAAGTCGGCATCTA`
Response: 3.1

Query: Record: `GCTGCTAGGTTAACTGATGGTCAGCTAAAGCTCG`
Response: 0.846

Query: And what about the sequence `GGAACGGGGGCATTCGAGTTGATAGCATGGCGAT` ?
Response: 3.99

Query: Also `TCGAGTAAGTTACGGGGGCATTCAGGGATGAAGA` , if possible.
Response: 2.64

Query: Would you mind doing `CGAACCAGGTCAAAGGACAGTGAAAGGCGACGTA` as well?
Response: 5.27

Query: Next sequence: `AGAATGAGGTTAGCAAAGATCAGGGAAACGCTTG`
Response: 1.79

Query: Then what about the sequence `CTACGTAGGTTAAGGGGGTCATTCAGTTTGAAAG` ?
Response: 5.67

====

# Tested on: LXRa:RXRa (NR concentration 270 nM, RXRa partner concentration 90 nM)
# procedureSummary: PBM binding z-score (relative to random genomic background probes); higher = stronger binding; sequences stand for … in GC…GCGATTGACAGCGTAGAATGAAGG
outcomeMeasure: PBM binding z-score
Write the number on its own, no unit after it.

Field: example entries. Status: answers known.
residueCodes	recordedResult
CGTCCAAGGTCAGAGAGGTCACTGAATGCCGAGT	5.79
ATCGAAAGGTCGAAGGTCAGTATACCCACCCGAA	4.68
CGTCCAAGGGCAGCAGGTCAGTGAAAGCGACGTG	-0.0372
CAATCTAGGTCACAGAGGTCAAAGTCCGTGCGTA	7.04
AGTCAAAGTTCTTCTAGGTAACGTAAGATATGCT	-0.366
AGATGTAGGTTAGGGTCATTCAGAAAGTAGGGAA	3.88
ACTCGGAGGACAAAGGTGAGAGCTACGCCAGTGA	0.58
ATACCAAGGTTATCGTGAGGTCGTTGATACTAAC	4.42
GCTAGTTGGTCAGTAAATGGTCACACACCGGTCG	-0.126
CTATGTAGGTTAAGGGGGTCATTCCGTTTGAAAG	5.26

Query: Given the sequence `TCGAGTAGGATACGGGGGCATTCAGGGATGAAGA` , what is its reported PBM binding z-score?
Response: 1.43

Query: Another: `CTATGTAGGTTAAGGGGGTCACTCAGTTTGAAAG`
Response: 4.36

Query: Try this sequence too: `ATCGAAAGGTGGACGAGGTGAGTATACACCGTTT`
Response: -0.178

Query: Next sequence up: `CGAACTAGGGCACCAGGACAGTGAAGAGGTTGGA`
Response: -0.347

Query: Also `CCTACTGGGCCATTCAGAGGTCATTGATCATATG` ?
Response: 4.32

Query: Then what about the sequence `CCGAGTAGGTTACGAGGGGGCATTAAGTGCGAAT` ?
Response: 6.98

Query: Let us now turn to `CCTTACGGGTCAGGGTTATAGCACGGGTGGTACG`
Response: 2.22
